# measurement description: Determination of aldehyde capture rate (nonenal as model aldehyde, HPLC quantification)
# condition notes: 225 minutes; higher absolute value of the slope = higher capture rate
measurement name: Capture rate (slope of the capture curve per unit time)
One number for each entry.

Known Capture rate (slope of the capture curve per unit time) results, listed for orientation:
• Nc1cc2cc3c(cc2cc1C1(O)CC1)OCO3 = −0.06
• CC(C)(O)c1cc2cc3c(cc2cc1N)OCO3 = −0.25
• CC(C)(O)c1nc2cc3nc(N4CCOCC4)oc3cc2cc1N = −0.17

Task item: Name the recorded Capture rate (slope of the capture curve per unit time) of the item CC(C)(O)c1nc2cc3c(cc2cc1N)OCO3 in your answer.
Reply: −0.05
